Cited source: patent US6544985B2

Parameter: melting point. Scope: all listed entries.

- Molecule: "CN(C)c1cc2c(cc1Cl)NC(=O)CC(c1cccc(-c3nnc(CCO)s3)c1)=N2 [Example 223]"
  Readout: "melting point"
  Value Measured: "198 to 200 °C"
- Molecule: "CN(C)c1cc2c(cc1C(F)(F)F)NC(=O)CC(c1cccc(-c3nnc(CCO)s3)c1)=N2 [Example 205]"
  Readout: "melting point"
  Value Measured: "234 to 237 °C"
- Molecule: "CN(C)c1cc2c(cc1Cl)NC(=O)CC(c1cccc(-n3cncn3)c1)=N2 [Example 73]"
  Readout: "melting point"
  Value Measured: "239 to 241 °C"

IN: Name the recorded melting point for CN(C)c1cc2c(cc1C(F)(F)F)NC(=O)CC(c1cccc(-c3cscn3)c1)=N2 [Example 209] .
OUT: 200 °C (dec.)

IN: Name the recorded melting point for Cc1noc(-c2cccc(C3=Nc4cc(N(C)C)c(Cl)cc4NC(=O)C3)c2)c1CO [Example 35] .
OUT: 232 to 233 °C

IN: Name the recorded melting point for CN(C)c1cc2c(cc1Cl)NC(=O)CC(c1cccc(-n3nncc3CN3CCCC3)c1)=N2 [Example 45] .
OUT: 180 to 182 °C
